experiment: Biodistribution of 177Lu-labeled αMSH analogues in mice bearing B16F10 mouse melanoma; format: in vivo, C57BL/6J mice; settings: mouse, liver, iv, total radioactivity; 24 h p.i., C57BL/6J mice, B16F10 melanoma; read-out: Biodistribution, Liver
Listed here: items and their measured tissue uptake at 24 h.
Quantity: tissue uptake at 24 h

[
  {
    "Compound": "CCCC[C@H](NC(=O)CN1CCC(NC(=O)[C@H](CCCCNC(=O)CN2CCN(CC(=O)O)CCN(CC(=O)O)CCN(CC(=O)O)CC2)NC(=O)[C@H](CCC(=O)O)NC(=O)CCCc2ccc(I)cc2)CC1)C(=O)N[C@H]1CC(=O)NCCCC[C@@H](C(N)=O)N(C)C(=O)[C@H](Cc2c[nH]c3ccccc23)N(C)C(=O)[C@H](CCCNC(=N)N)N(C)C(=O)[C@@H](Cc2ccccc2)NC(=O)[C@H](Cc2c[nH]cn2)N(C)C1=O [^177Lu-labeled CCZ01088, metal not drawn]",
    "Measured": "4.7 %ID/g"
  },
  {
    "Compound": "CCCC[C@H](NC(=O)CN1CCC(NC(=O)[C@H](CCCCNC(=O)CN2CCN(CC(=O)O)CCN(CC(=O)O)CCN(CC(=O)O)CC2)NC(=O)[C@H](CCC(=O)O)NC(=O)CCCc2ccc(I)cc2)CC1)C(=O)N[C@H]1CC(=O)NCCCC[C@@H](C(N)=O)N(C)C(=O)[C@H](Cc2c[nH]c3ccccc23)NC(=O)[C@H](CCCNC(=N)N)N(C)C(=O)[C@@H](Cc2ccccc2)NC(=O)[C@H](Cc2c[nH]cn2)NC1=O [^177Lu-labeled CCZ01118, metal not drawn]",
    "Measured": "2.59 %ID/g"
  },
  {
    "Compound": "CCCC[C@H](NC(=O)CN1CCC(NC(=O)[C@H](CCCCNC(=O)CN2CCN(CC(=O)O)CCN(CC(=O)O)CCN(CC(=O)O)CC2)NC(=O)[C@H](CCC(=O)O)NC(=O)CCCc2ccc(I)cc2)CC1)C(=O)N[C@H]1CC(=O)NCCCC[C@@H](C(N)=O)NC(=O)[C@H](Cc2c[nH]c3ccccc23)NC(=O)[C@H](CCCNC(=N)N)NC(=O)[C@@H](Cc2ccccc2)NC(=O)[C@H](Cc2c[nH]cn2)NC1=O [^177Lu-labeled CCZ01082, metal not drawn]",
    "Measured": "2.41 %ID/g"
  }
]

###

test: Biodistribution of 177Lu-labeled αMSH analogues in mice bearing B16F10 mouse melanoma; assay type: in vivo, C57BL/6J mice; conditions: mouse, kidneys, iv, total radioactivity; 1 h p.i., C57BL/6J mice, B16F10 melanoma; read-out: Biodistribution, Kidneys
Listed here: items and their measured tissue uptake at 1 h.

[
  {
    "Compound": "CCCC[C@H](NC(=O)CN1CCC(NC(=O)[C@H](CCCCNC(=O)CN2CCN(CC(=O)O)CCN(CC(=O)O)CCN(CC(=O)O)CC2)NC(=O)[C@H](CCC(=O)O)NC(=O)CCCc2ccc(I)cc2)CC1)C(=O)N[C@H]1CC(=O)NCCCC[C@@H](C(N)=O)N(C)C(=O)[C@H](Cc2c[nH]c3ccccc23)N(C)C(=O)[C@H](CCCNC(=N)N)N(C)C(=O)[C@@H](Cc2ccccc2)NC(=O)[C@H](Cc2c[nH]cn2)N(C)C1=O [^177Lu-labeled CCZ01088, metal not drawn]",
    "tissue uptake at 1 h / %ID/g": 13.2
  },
  {
    "Compound": "CCCC[C@H](NC(=O)CN1CCC(NC(=O)[C@H](CCCCNC(=O)CN2CCN(CC(=O)O)CCN(CC(=O)O)CCN(CC(=O)O)CC2)NC(=O)[C@H](CCC(=O)O)NC(=O)CCCc2ccc(I)cc2)CC1)C(=O)N[C@H]1CC(=O)NCCCC[C@@H](C(N)=O)NC(=O)[C@H](Cc2c[nH]c3ccccc23)NC(=O)[C@H](CCCNC(=N)N)NC(=O)[C@@H](Cc2ccccc2)NC(=O)[C@H](Cc2c[nH]cn2)NC1=O [^177Lu-labeled CCZ01082, metal not drawn]",
    "tissue uptake at 1 h / %ID/g": 11.7
  }
]

###

Listed here: items and their measured tissue uptake at 24 h.
experiment: Biodistribution of 177Lu-labeled αMSH analogues in mice bearing SK-MEL-1 human melanoma; details: male, NRG (NOD.Cg-Rag1tm1Mom Il2rgtm1Wjl/SzJ), mouse, brain, total radioactivity
Quantity: tissue uptake at 24 h (%ID/g)

[
  {
    "Compound": "CCCC[C@H](NC(=O)CN1CCC(NC(=O)[C@H](CCCCNC(=O)CN2CCN(CC(=O)O)CCN(CC(=O)O)CCN(CC(=O)O)CC2)NC(=O)CNC(=O)CCCc2ccc(-c3ccc(C)cc3)cc2)CC1)C(=O)N[C@H]1CC(=O)NCCCC[C@@H](C(N)=O)N(C)C(=O)[C@H](Cc2c[nH]c3ccccc23)NC(=O)[C@H](CCCNC(=N)N)N(C)C(=O)[C@@H](Cc2ccccc2)NC(=O)[C@H](Cc2c[nH]cn2)NC1=O [^177Lu-labeled CCZ01158, metal not drawn]",
    "Units Label": "%ID/g",
    "Measured": 0.04
  },
  {
    "Compound": "CCCC[C@H](NC(=O)CN1CCC(NC(=O)[C@H](CCCCNC(=O)CN2CCN(CC(=O)O)CCN(CC(=O)O)CCN(CC(=O)O)CC2)NC(=O)CNC(=O)CCCc2ccc(I)cc2)CC1)C(=O)N[C@H]1CC(=O)NCCCC[C@@H](C(N)=O)N(C)C(=O)[C@H](Cc2c[nH]c3ccccc23)NC(=O)[C@H](CCCNC(=N)N)N(C)C(=O)[C@@H](Cc2ccccc2)NC(=O)[C@H](Cc2c[nH]cn2)NC1=O [^177Lu-labeled CCZ01148, metal not drawn]",
    "Units Label": "%ID/g",
    "Measured": 0.32
  },
  {
    "Compound": "CCCC[C@H](NC(=O)CN1CCC(NC(=O)[C@H](CCCCNC(=O)CN2CCN(CC(=O)O)CCN(CC(=O)O)CCN(CC(=O)O)CC2)NC(=O)[C@H](CCC(=O)O)NC(=O)CCCc2ccc(I)cc2)CC1)C(=O)N[C@H]1CC(=O)NCCCC[C@@H](C(N)=O)N(C)C(=O)[C@H](Cc2c[nH]c3ccccc23)NC(=O)[C@H](CCCNC(=N)N)N(C)C(=O)[C@@H](Cc2ccccc2)NC(=O)[C@H](Cc2c[nH]cn2)NC1=O [^177Lu-labeled CCZ01118, metal not drawn]",
    "Units Label": "%ID/g",
    "Measured": 0.01
  }
]

###

test: Biodistribution of 68Ga-labeled peptide in mice bearing B16F10 mouse melanoma; type: in vivo, C57BL/6J mice; conditions: C57BL/6J, brain, iv, with BMS 470539 (MC1R-specific inhibitor), 0.5 mg co-injected, total radioactivity, 1 h p.i. blocked, co-injection of 0.5 mg BMS 470539, read-out: Biodistribution, Brain
Quantity: tissue uptake at 1 h

[
  {
    "Compound": "CCCC[C@H](NC(=O)CN1CCC(NC(=O)CN2CCN(CC(=O)O)CCN(CC(=O)O)CCN(CC(=O)O)CC2)CC1)C(=O)N[C@H]1CC(=O)NCCCC[C@@H](C(N)=O)N(C)C(=O)[C@H](Cc2c[nH]c3ccccc23)N(C)C(=O)[C@H](CCCNC(=N)N)N(C)C(=O)[C@@H](Cc2ccccc2)NC(=O)[C@H](Cc2c[nH]cn2)N(C)C1=O [^68Ga-labeled CCZ01099, metal not drawn]",
    "Measured": "0.03 %ID/g"
  }
]

###

assay: Biodistribution of 177Lu-labeled αMSH analogues in mice bearing B16F10 mouse melanoma; format: in vivo, C57BL/6J mice; conditions: mouse, intestine, iv, total radioactivity; 24 h p.i., C57BL/6J mice, B16F10 melanoma; read-out: Biodistribution, Intestine
Could you please mark Yes for values of tissue uptake at 24 h below 0.2 %ID/g and No for values at or above it?

[
  {
    "Molecule": "CCCC[C@H](NC(=O)CN1CCC(NC(=O)CN2CCN(CC(=O)O)CCN(CC(=O)O)CCN(CC(=O)O)CC2)CC1)C(=O)N[C@H]1CC(=O)NCCCC[C@@H](C(N)=O)N(C)C(=O)[C@H](Cc2c[nH]c3ccccc23)N(C)C(=O)[C@H](CCCNC(=N)N)N(C)C(=O)[C@@H](Cc2ccccc2)NC(=O)[C@H](Cc2c[nH]cn2)N(C)C1=O [^177Lu-labeled CCZ01099, metal not drawn]",
    "Cat": "No"
  },
  {
    "Molecule": "CCCC[C@H](NC(=O)CN1CCC(NC(=O)CN2CCN(CC(=O)O)CCN(CC(=O)O)CCN(CC(=O)O)CC2)CC1)C(=O)N[C@H]1CC(=O)NCCCC[C@@H](C(N)=O)NC(=O)[C@H](Cc2c[nH]c3ccccc23)NC(=O)[C@H](CCCNC(=N)N)NC(=O)[C@@H](Cc2ccccc2)NC(=O)[C@H](Cc2c[nH]cn2)NC1=O [^177Lu-labeled CCZ01048, metal not drawn, reference compound]",
    "Cat": "No"
  },
  {
    "Molecule": "CCCC[C@H](NC(=O)CN1CCC(NC(=O)[C@H](CCCCNC(=O)CN2CCN(CC(=O)O)CCN(CC(=O)O)CCN(CC(=O)O)CC2)NC(=O)[C@H](CCC(=O)O)NC(=O)CCCc2ccc(I)cc2)CC1)C(=O)N[C@H]1CC(=O)NCCCC[C@@H](C(N)=O)N(C)C(=O)[C@H](Cc2c[nH]c3ccccc23)NC(=O)[C@H](CCCNC(=N)N)N(C)C(=O)[C@@H](Cc2ccccc2)NC(=O)[C@H](Cc2c[nH]cn2)NC1=O [^177Lu-labeled CCZ01118, metal not drawn]",
    "Cat": "No"
  },
  {
    "Molecule": "CCCC[C@H](NC(=O)CN1CCC(NC(=O)CN2CCN(CC(=O)O)CCN(CC(=O)O)CCN(CC(=O)O)CC2)CC1)C(=O)N[C@H]1CC(=O)NCCCC[C@@H](C(N)=O)N(C)C(=O)[C@H](Cc2c[nH]c3ccccc23)NC(=O)[C@H](CCCNC(=N)N)N(C)C(=O)[C@@H](Cc2ccccc2)NC(=O)[C@H](Cc2c[nH]cn2)NC1=O [^177Lu-labeled CCZ01106, metal not drawn]",
    "Cat": "Yes"
  },
  {
    "Molecule": "CCCC[C@H](NC(=O)CN1CCC(NC(=O)[C@H](CCCCNC(=O)CN2CCN(CC(=O)O)CCN(CC(=O)O)CCN(CC(=O)O)CC2)NC(=O)[C@H](CCC(=O)O)NC(=O)CCCc2ccc(I)cc2)CC1)C(=O)N[C@H]1CC(=O)NCCCC[C@@H](C(N)=O)N(C)C(=O)[C@H](Cc2c[nH]c3ccccc23)N(C)C(=O)[C@H](CCCNC(=N)N)N(C)C(=O)[C@@H](Cc2ccccc2)NC(=O)[C@H](Cc2c[nH]cn2)N(C)C1=O [^177Lu-labeled CCZ01088, metal not drawn]",
    "Cat": "Yes"
  },
  {
    "Molecule": "CCCC[C@H](NC(=O)CN1CCC(NC(=O)[C@H](CCCCNC(=O)CN2CCN(CC(=O)O)CCN(CC(=O)O)CCN(CC(=O)O)CC2)NC(=O)[C@H](CCC(=O)O)NC(=O)CCCc2ccc(I)cc2)CC1)C(=O)N[C@H]1CC(=O)NCCCC[C@@H](C(N)=O)NC(=O)[C@H](Cc2c[nH]c3ccccc23)NC(=O)[C@H](CCCNC(=N)N)NC(=O)[C@@H](Cc2ccccc2)NC(=O)[C@H](Cc2c[nH]cn2)NC1=O [^177Lu-labeled CCZ01082, metal not drawn]",
    "Cat": "No"
  }
]
